# STUDY_TARGET: OXA-1 (Escherichia coli, UniProt P13661)
# Sequence (P13661 26-276): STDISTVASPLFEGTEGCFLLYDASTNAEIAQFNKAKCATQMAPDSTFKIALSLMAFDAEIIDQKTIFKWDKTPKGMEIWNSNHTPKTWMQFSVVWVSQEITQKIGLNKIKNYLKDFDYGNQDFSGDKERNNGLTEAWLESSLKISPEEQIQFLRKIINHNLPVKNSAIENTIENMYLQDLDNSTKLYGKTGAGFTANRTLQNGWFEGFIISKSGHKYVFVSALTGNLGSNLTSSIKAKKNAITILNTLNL
# MEASUREMENT_NOTES: Competitive assay with nitrocefin (RSAI)
# Format: biochemical, E. coli 1527E
# Design: the beta-lactamase has to be extracted from the cells for the purpose of the present invention; made in house; host or cells: E. coli 1527E according to the earlier reading (crude cell extract)
Below is a list of entries, each paired with its recorded RSAI value.
A bare number is all that is needed in reply.

In the examples that follow, each entry is paired with its recorded RSAI.
Cn1nnnc1SCC1=C(C(=O)O)N2C(=O)[C@@H](NC(=O)[C@H](O)c3ccccc3)[C@H]2SC1: 1.5
CC1(C)S[C@@H]2[C@H](NC(=O)Cc3ccccc3)C(=O)N2[C@H]1C(=O)O: 0.2

Exercise: For CO/N=C(\C(=O)N[C@@H]1C(=O)N2C(C(=O)O)=C(COC(C)=O)CS[C@H]12)c1csc(N)n1 , write its RSAI.
Key: 9

Exercise: For Cc1nnc(SCC2=C(C(=O)O)N3C(=O)[C@@H](NC(=O)Cn4cnnn4)[C@H]3SC2)s1 , write its RSAI.
Key: 10

Data provenance: patent EP0059645A1
